TARGET: Receptor tyrosine-protein kinase erbB-4 (Homo sapiens)
Sequence (Q15303 whole entry, the tested form may be a part): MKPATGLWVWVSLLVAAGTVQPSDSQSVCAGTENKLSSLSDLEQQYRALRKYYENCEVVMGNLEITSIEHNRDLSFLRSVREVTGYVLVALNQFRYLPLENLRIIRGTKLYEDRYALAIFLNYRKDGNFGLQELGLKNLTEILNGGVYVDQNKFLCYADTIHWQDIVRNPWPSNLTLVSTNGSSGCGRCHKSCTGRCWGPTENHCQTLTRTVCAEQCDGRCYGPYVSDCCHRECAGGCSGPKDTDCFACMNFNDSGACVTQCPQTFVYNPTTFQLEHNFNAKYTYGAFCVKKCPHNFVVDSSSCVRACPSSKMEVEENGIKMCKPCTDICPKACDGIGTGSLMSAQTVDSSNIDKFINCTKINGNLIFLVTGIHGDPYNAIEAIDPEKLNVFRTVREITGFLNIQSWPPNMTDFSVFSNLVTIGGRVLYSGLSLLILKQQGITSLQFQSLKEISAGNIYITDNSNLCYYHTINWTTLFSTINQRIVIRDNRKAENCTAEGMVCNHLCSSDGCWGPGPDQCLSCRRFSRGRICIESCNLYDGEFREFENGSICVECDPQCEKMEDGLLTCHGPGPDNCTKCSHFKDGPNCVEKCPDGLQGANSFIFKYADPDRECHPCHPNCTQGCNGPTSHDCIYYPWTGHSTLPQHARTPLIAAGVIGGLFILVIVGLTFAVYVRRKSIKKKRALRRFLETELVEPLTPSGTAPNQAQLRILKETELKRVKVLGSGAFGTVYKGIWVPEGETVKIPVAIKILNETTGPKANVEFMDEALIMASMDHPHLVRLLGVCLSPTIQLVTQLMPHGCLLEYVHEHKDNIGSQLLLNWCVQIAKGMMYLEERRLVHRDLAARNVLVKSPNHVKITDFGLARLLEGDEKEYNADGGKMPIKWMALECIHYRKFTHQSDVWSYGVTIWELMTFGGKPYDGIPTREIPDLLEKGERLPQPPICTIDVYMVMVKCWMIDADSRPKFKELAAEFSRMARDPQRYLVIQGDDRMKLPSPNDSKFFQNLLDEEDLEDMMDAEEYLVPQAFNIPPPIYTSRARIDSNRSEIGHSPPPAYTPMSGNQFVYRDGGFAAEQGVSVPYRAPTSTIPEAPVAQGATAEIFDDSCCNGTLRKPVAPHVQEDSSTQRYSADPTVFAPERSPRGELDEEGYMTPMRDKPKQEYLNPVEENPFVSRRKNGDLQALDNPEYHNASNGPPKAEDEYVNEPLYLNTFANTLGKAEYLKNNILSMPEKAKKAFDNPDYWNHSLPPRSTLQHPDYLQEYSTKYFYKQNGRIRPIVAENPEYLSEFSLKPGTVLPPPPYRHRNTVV
PROCEDURE_TEXT: Inhibition of N-terminal His6-tagged recombinant human ErbB4 (709 to 991 residues) expressed in insect Sf21 cells using poly(Glu,Tyr)4:1 as substrate incubated for 60 mins by ELISA
pIC50: −log10 of the molar value.

[
  {
    "COMPOUND_SMILES": "CC1(C)c2cc(C3CCN(CC4CCOCC4)CC3)ccc2C(=O)c2c1[nH]c1cc(C#N)ccc21",
    "TARGET": "Receptor tyrosine-protein kinase erbB-4 (Homo sapiens)",
    "pIC50": 6.67
  }
]

---

TARGET: Vascular endothelial growth factor receptor 2 (Homo sapiens, UniProt P35968)
Sequence (P35968 whole entry): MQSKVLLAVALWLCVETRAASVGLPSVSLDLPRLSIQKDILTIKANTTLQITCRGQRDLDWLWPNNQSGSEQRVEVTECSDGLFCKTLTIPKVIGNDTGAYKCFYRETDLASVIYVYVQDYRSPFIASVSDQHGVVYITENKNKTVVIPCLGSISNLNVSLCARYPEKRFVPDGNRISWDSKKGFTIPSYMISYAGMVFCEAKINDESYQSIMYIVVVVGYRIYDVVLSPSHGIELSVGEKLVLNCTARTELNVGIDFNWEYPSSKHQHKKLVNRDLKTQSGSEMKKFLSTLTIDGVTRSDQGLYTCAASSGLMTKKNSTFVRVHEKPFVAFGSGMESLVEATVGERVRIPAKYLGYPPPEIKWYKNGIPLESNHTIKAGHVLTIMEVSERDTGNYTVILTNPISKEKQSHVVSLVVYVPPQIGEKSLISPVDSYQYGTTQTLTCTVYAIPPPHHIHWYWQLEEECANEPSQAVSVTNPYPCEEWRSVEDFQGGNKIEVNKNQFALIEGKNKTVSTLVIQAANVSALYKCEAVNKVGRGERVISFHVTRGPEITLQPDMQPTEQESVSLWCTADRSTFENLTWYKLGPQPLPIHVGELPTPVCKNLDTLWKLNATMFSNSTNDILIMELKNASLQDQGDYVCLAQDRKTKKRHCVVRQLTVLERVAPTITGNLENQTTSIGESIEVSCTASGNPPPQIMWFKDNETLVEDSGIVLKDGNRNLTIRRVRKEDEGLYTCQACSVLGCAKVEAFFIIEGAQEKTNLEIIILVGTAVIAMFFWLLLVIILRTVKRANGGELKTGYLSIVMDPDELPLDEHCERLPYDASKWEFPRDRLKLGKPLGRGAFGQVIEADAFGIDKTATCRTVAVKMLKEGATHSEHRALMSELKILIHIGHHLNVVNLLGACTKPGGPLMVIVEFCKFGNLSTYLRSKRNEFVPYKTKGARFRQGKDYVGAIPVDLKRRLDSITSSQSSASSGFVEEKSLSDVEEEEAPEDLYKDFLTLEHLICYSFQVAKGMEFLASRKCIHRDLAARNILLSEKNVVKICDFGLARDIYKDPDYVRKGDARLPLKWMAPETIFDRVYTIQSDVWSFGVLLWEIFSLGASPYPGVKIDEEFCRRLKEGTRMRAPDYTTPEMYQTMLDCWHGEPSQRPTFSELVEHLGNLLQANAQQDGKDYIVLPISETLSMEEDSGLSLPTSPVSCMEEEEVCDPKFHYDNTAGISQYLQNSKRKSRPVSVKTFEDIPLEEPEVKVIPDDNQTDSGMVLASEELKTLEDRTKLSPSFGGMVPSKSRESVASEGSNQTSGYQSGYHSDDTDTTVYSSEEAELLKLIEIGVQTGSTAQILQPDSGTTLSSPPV
PROCEDURE_TEXT: Inhibition of N-terminal His6-tagged recombinant human KDR (790 residues) expressed in insect Sf21 cells using poly(Glu,Tyr)4:1 as substrate incubated for 60 mins by ELISA
pIC50: −log10 of the molar value.
MEASUREMENT_KIND: pIC50

[
  {
    "COMPOUND_SMILES": "CC1(C)c2cc(C3CCN(CC4CCOCC4)CC3)ccc2C(=O)c2c1[nH]c1cc(C#N)ccc21",
    "TARGET": "Vascular endothelial growth factor receptor 2 (Homo sapiens, UniProt P35968)",
    "MEASUREMENT_KIND": "pIC50",
    "OBSERVED_RESULT": 6.98
  }
]
